Tested on: KIT;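 further: KINOMEscan kinase panel screen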
test-parameters: concentration: 1 μM, replicates: in singlicate; n = 1

compound | %Inh [%]
CCCCCc1nc2c(N)ncnc2n1CCCCC [SKF-97255] | 17
O=c1cc(N2CCOCC2)nc2n(Cc3cccc(F)c3)ccn12 [GSK2297430] | 10
O=c1cc(N2CCOCC2)nc2n(Cc3cccc(C(F)(F)F)c3)ccn12 [GSK2297543] | 13
Cc1nnc(-c2ccc3ncc(-c4ccc(S(C)=O)cc4)n3c2)o1 (stereo not drawn) | 59
[2H]C([2H])(c1cccc(C(F)(F)F)c1C)n1ccn2c(=O)nc(N3CCOCC3)cc12 [GSK2336394] | 14
COc1ccc(CNC(=O)NC2CCN(c3ccnc(Nc4ccc(OC)cc4)n3)C2)cc1 (stereo not drawn) [GSK1379727] | 16
C[C@@H](Oc1cc(-n2cnc3ccc(NC(=O)NC(C)(C)C)cc32)sc1C(N)=O)c1ccccc1Cl [GSK346294] | 20
Fc1ccc(-c2nn3c(OCC(F)(F)F)cccc3c2-c2ccncc2)cc1 [GW514784] | 24
O=C(NCCNc1ccnc(Nc2ccc(F)cc2)n1)Nc1ccccc1F [GSK1379880] | 48

Hey, just so you know, these numbers are from paper PMC5540273.
